The reader will find reported IC50 values listed item by item below.
Target: MAT2A homodimer (Homo sapiens, UniProt P31153)
Construct: inferred from Ni sepharose purification with imidazole elution
Sequence (P31153 whole entry): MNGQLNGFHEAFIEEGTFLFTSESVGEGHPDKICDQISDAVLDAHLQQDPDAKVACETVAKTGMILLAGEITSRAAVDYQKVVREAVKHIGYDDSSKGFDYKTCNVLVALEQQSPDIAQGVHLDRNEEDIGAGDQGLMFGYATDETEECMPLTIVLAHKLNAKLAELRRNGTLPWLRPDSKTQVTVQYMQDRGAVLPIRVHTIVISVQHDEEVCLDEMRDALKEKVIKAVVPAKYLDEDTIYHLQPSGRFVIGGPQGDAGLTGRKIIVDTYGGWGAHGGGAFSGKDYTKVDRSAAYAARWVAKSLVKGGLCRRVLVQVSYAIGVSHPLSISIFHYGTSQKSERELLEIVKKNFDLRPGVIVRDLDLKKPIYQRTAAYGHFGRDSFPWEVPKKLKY
Assay: MAT2A inhibition (biochemical, liberated phosphate, PiColorLock Gold)
Conditions: recombinant MAT2A homodimer; IC50 bin with Max Inh.; read-out: Enzyme Inhibition Bin

Exercise: Data request, read-out IC50, for `Cn1nc2ccc(-n3nc4c(C(F)(F)F)cn(CC5CC5)c4c(-c4ccc(C5CC5)nc4)c3=O)cc2c1C(F)(F)F`
Solution: < 100 nM

Exercise: Reported IC50 for `Cn1cc2cc(-n3nc4c(C(F)F)cn(CC5CC5)c4c(-c4ccc(C5CC5)nc4)c3=O)ccc2n1` : what is it?
Solution: < 100 nM

Exercise: Data request, read-out IC50, for `Cn1cc2cc(-n3nc4ccn(CC5CC5)c4c(-c4ccc(C#N)cc4)c3=O)ccc2n1`
Solution: < 100 nM

---
Exercise: Fill blank: measured IC50 of the molecule `Cn1cc2cc(-n3nc4ccn(CC5CC5)c4c(-c4ccc(C(F)F)nc4)c3=O)ccc2n1` is ____.
Solution: < 100 nM

Exercise: # get_value(readout='IC50', item= `CNCc1cn(CC2CC2)c2c(-c3ccc(C4CC4)nc3)c(=O)n(-c3ccc4nn(C)cc4c3)nc12` )
Solution: < 100 nM

Exercise: Quick one: IC50 of `CCc1ccc(-c2c(=O)n(-c3ccc4nn(C)cc4c3)nc3ccn(CC4CC4)c23)cn1` ?
Solution: < 100 nM

Exercise: Query: IC50; subject: `Cn1cc2cc(-n3nc4[nH]c(=O)n(CC5CC5)c4c(-c4ccc(Cl)cc4)c3=O)ccc2n1`
Solution: < 100 nM

Exercise: What value of IC50 has been reported for the following molecule? `Cn1cc2cc(-n3nc4c(c(-c5ccc(C6CC6)nc5)c3=O)N(CC3CC3)CC4(C)C)ccc2n1`
Solution: 1000 to 10000 nM

Exercise: Which IC50 reading was recorded for the molecule `Cc1nc2ccc(-n3nc4ccn(CC5CC5)c4c(-c4ccc(C(F)F)nc4)c3=O)cc2n1C` ?
Solution: < 100 nM

Exercise: I have this molecule here, `Cn1cc2cc(-n3nc4c(S(C)(=O)=O)cn(CC5CC5)c4c(-c4ccc(C5CC5)nc4)c3=O)ccc2n1` , and I need its recorded IC50.
Solution: < 1000 nM

Exercise: Bench note: what IC50 did `Cn1cc2cc(-n3nc4c(Br)cn(CC5CC5)c4c(-c4ccc(C5CC5)nc4)c3=O)ccc2n1` show?
Solution: < 100 nM
